- TARGET ENTITY: T1, EsCas13d, nuclease-dead (Eubacterium siraeum, UniProt B0MS50, R295A;H300A;R849A;H854A)
- T1 sequence: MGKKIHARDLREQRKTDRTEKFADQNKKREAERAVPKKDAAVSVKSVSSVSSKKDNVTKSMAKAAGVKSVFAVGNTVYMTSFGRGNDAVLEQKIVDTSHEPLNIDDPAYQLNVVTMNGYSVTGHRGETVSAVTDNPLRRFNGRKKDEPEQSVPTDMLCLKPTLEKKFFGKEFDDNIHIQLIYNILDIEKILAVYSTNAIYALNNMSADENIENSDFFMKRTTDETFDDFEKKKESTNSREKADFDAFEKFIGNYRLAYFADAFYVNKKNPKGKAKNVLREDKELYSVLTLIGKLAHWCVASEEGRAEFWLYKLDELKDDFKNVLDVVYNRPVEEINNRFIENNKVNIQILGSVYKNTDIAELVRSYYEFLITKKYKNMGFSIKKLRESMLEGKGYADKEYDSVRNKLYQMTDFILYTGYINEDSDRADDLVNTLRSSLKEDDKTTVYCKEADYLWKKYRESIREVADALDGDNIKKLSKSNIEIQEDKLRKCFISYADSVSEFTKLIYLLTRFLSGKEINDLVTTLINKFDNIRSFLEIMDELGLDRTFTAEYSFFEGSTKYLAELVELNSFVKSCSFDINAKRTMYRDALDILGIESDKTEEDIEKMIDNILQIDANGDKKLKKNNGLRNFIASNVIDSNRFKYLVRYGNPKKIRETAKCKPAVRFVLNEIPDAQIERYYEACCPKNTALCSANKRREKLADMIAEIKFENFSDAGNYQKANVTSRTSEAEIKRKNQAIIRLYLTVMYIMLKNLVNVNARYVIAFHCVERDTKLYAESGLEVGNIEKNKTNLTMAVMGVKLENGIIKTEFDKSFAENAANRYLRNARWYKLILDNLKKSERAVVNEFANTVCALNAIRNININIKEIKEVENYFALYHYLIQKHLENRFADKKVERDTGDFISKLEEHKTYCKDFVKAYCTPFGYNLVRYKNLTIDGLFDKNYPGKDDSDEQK
- PROTOCOL SUMMARY: crRNA (strand 1, pre-loaded); Mg2+; 40 mM Tris-HCl pH 7.5, 150 mM NaCl, 6 mM MgCl2, 1 mM DTT, 0.1% Tween-20, 0.2 mg/ml BSA; 25 C; 10 min per concentration, then washed
- CONDITION CONTEXT: tags: His6-TwinStrep-SUMO cleaved; N-terminal SNAP kept (SNAP-Surface 488); label: 3' end held by stalled T7 RNA polymerase
ASSAY METRIC: pKd
To interpret pKd, take it as minus log10 of a concentration measured in moles per litre.

Solved cases (3 shown):
• target 3 C1A,U7A (mixed) RNA 1: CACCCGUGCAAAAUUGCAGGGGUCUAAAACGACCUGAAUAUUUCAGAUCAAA RNA 2: GGGAAUGGAUCCACAUCUACGAAUUCGUUUUUGAUCUGAAAUAUACAGGUAUGCAGAUCGGAAGAGCACACGU = 7.55
• target 1 insG 3' of 21,insC 3' of 20 (mixed) RNA 1: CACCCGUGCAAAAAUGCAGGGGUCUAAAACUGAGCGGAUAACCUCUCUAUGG RNA 2: GGGAAUGGAUCCACAUCUACGAAUUCGUACCGACUAGAGAGGUUAUCCGCUCACCGAGAUCGGAAGAGCACACGU = 7.82
• target 2 MT 5'PFS GAG 3'PFS CAU (mixed) RNA 1: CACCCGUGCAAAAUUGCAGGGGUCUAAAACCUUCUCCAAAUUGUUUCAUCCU RNA 2: GGGAAUGGAUCCACAUCUACGAAUUCGAGAGGAUGAAACAAUUUGGAGAAGCAUAGAUCGGAAGAGCACACGU = 8.29

// below: pKd requested for another binder
Q: Please report the recorded pKd for target 1 MT 5'PFS GCA 3'PFS ACG (mixed) RNA 1: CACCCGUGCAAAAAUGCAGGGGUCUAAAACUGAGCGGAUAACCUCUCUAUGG RNA 2: GGGAAUGGAUCCACAUCUACGAAUUCGCACCAUAGAGAGGUUAUCCGCUCAACGAGAUCGGAAGAGCACACGU .
Ans: 7.72
